target: human ROR1 expressed on cells (MDA-MB-231, Jeko-1, PA-1, HCC1187) (human, UniProt Q01973 30-937); test: cell-based or functional assay
Sequence (Q01973 30-937 limits assumed): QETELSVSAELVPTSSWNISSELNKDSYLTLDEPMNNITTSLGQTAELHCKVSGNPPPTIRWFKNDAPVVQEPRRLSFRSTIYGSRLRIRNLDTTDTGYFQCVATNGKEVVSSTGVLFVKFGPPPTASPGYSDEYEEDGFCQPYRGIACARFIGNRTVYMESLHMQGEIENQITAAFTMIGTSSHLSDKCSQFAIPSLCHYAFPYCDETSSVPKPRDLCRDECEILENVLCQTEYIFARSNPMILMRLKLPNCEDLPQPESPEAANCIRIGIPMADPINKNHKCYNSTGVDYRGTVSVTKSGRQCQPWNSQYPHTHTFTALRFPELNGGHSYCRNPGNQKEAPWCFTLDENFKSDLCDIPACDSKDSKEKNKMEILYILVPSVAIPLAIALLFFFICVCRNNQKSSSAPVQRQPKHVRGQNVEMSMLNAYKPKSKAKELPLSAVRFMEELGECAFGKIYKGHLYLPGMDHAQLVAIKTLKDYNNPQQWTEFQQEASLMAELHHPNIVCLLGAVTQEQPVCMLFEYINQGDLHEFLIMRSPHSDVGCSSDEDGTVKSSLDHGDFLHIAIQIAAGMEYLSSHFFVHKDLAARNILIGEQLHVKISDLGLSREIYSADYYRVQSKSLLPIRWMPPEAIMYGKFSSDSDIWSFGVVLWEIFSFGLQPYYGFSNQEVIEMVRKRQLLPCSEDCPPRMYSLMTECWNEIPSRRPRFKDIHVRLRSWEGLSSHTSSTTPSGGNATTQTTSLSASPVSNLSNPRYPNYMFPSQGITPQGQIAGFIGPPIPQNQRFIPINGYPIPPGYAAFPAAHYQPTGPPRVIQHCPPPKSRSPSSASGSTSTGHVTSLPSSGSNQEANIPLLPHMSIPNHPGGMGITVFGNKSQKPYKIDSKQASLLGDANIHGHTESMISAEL
This listing pairs binders with measured inhibitory IC50 against the proliferation of PA-1 cells (CellTiterGlo2).
assay_metric: inhibitory IC50 against the proliferation of PA-1 cells (CellTiterGlo2)

binder	observed_result
ADC-6 (UC961 conjugated to LD-14) (antibody, human IgG1, kappa, V domains shown, linker-drug LD-14 (eribulin) on cysteine sulfhydryls of reduced disulfides; drug loading 3.7-4.3 per antibody) VH: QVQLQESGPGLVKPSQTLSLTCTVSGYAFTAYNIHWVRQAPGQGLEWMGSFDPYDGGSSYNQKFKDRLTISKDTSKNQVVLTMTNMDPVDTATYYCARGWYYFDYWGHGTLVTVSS VL: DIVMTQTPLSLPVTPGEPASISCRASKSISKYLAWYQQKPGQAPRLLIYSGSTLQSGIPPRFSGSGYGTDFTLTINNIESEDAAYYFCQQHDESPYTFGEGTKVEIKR	0.36 nM
ADC-2 (AM3-ZH3 conjugated to LD-14) (antibody, human IgG1, kappa, V domains shown, linker-drug LD-14 (eribulin) on cysteine sulfhydryls of reduced disulfides; average DAR between 3.7 and 4.3) VH: EVQLVESGGGLVQPGGSLRLSCAASGFTFSSYPMSWVRQAPGKGLEWVSSISTGASAYFPDSVKGRFTISRDNAKNSLYLQMNSLRAEDTAVYYCARITTSTWYMDVWGQGTTVTVSS VL: DIQMTQSPSAMSASVGDRVTITCKASQDIYSYLSWFQQKPGKVPKTLIYRANRLVRGVPSRFSGSGSGQEYTLTISSLQPEDMATYYCLQYDEFPYTFGQGTKLEIKR	0.017 nM
ADC-7 (UC961 conjugated to LD-1) (antibody, human IgG1, kappa, V domains shown, linker-drug LD-1 (MMAE) on cysteine sulfhydryls of reduced disulfides; drug loading 3.7-4.3 per antibody) VH: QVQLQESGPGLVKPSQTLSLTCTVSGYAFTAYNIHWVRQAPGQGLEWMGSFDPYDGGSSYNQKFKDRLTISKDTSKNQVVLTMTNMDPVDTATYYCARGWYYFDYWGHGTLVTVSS VL: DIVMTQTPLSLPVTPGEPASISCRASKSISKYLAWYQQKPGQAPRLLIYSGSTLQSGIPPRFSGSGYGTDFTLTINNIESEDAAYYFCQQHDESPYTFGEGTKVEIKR	15.1 nM
ADC-5 (AM3-ZH3 conjugated to LD-1) (antibody, human IgG1, kappa, V domains shown, linker-drug LD-1 (MMAE) on cysteine sulfhydryls of reduced disulfides; average DAR between 3.7 and 4.3) VH: EVQLVESGGGLVQPGGSLRLSCAASGFTFSSYPMSWVRQAPGKGLEWVSSISTGASAYFPDSVKGRFTISRDNAKNSLYLQMNSLRAEDTAVYYCARITTSTWYMDVWGQGTTVTVSS VL: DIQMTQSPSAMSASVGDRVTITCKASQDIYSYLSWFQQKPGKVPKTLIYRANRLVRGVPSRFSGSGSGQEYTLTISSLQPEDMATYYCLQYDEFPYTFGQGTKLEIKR	17.8 nM
